Listed here are compounds together with their documented spectral intensity of the compound in the SEC spin column filtrate (protein fraction).
- test_system: FLJ20589 clone-derived protein (human hippocalcin-like protein 1, VILIP-3) (Homo sapiens)
- Construct: A human full-length cDNA clone was expressed as a protein with an N-terminal His tag; His tag (N); made in house; host or cells: Escherichia coli BL21star(DE3)pLysS (pDEST17 Gateway expression plasmid)
- assay_explanation: SEC/MS interaction analysis (size exclusion spin column and mass analysis) with FLJ20589 clone-derived protein
- Type: binding
- measurement_parameters: protein 23.75 μM, compound 1 μM
recorded_endpoint: spectral intensity of the compound in the SEC spin column filtrate (protein fraction)

compound: c1ccc(-c2ccc(C(c3ccccc3)n3ccnc3)cc2)cc1 (stereo not shown) [Bifonazole]
test_system: FLJ20589 clone-derived protein (human hippocalcin-like protein 1, VILIP-3) (Homo sapiens)
value_reported: 2343078

compound: CN1CCN(CCCN2c3ccccc3Sc3ccc(C(F)(F)F)cc32)CC1 [Trifluoperazine]
test_system: FLJ20589 clone-derived protein (human hippocalcin-like protein 1, VILIP-3) (Homo sapiens)
value_reported: 469062

compound: O=C1CN=C(c2ccccc2)c2cc(Cl)ccc2N1CC1CC1 [prazepam]
test_system: FLJ20589 clone-derived protein (human hippocalcin-like protein 1, VILIP-3) (Homo sapiens)
value_reported: 372254

compound: Fc1ccc(C(c2ccc(F)cc2)N2CCN(C/C=C/c3ccccc3)CC2)cc1 [Flunarizine]
test_system: FLJ20589 clone-derived protein (human hippocalcin-like protein 1, VILIP-3) (Homo sapiens)
value_reported: 501950

----------
- test_system: FLJ20589 clone-derived protein (human hippocalcin-like protein 1, VILIP-3) (Homo sapiens, UniProt P37235)
- Construct: A human full-length cDNA clone was expressed as a protein with an N-terminal His tag; His tag (N); made in house; host or cells: Escherichia coli BL21star(DE3)pLysS (pDEST17 Gateway expression plasmid)
- assay_explanation: SEC/MS interaction analysis (size exclusion spin column and mass analysis) with FLJ20589 clone-derived protein
- Format: binding
- measurement_parameters: protein 47.5 μM, compound 100 μM
recorded_endpoint: spectral intensity of the compound in the SEC spin column filtrate (protein fraction)

compound: CN1CCN(CCCN2c3ccccc3Sc3ccc(C(F)(F)F)cc32)CC1 [Trifluoperazine]
value_reported: 67433540

compound: c1ccc(-c2ccc(C(c3ccccc3)n3ccnc3)cc2)cc1 (stereo not shown) [Bifonazole]
value_reported: 8024232

compound: O=C1CN=C(c2ccccc2)c2cc(Cl)ccc2N1CC1CC1 [prazepam]
value_reported: 67316791

compound: Fc1ccc(C(c2ccc(F)cc2)N2CCN(C/C=C/c3ccccc3)CC2)cc1 [Flunarizine]
value_reported: 2683794

----------
A collection of molecules and their measured spectral intensity of the compound in the SEC spin column filtrate (protein fraction)
- test_system: FLJ39196 clone-derived protein (human neurocalcin δ) (Homo sapiens)
- Construct: A human full-length cDNA clone was expressed as a protein with an N-terminal His tag; His tag (N); made in house; host or cells: Escherichia coli BL21star(DE3)pLysS (pDEST17 Gateway expression plasmid)
- assay_explanation: SEC/MS interaction analysis (size exclusion spin column and mass analysis) with FLJ39196 clone-derived protein
- Type: binding
- measurement_parameters: protein 23.75 μM, compound 250 μM
recorded_endpoint: spectral intensity of the compound in the SEC spin column filtrate (protein fraction)

molecule: COC(=O)[C@H]1[C@H]2C[C@@H]3c4[nH]c5cc(OC)ccc5c4CCN3C[C@H]2C[C@@H](OC(=O)/C=C/c2cc(OC)c(OC)c(OC)c2)[C@@H]1OC
value_reported: 288844471
--
molecule: O=C1CN=C(c2ccccc2)c2cc(Cl)ccc2N1CC1CC1
value_reported: 517983224
--
molecule: c1ccc(-c2ccc(C(c3ccccc3)n3ccnc3)cc2)cc1 (stereo not shown)
value_reported: 85169446
--
molecule: Cc1cc(-c2ccccc2)nnc1NCCN1CCOCC1
value_reported: 1272226745

Data origin: patent US8178077B2
